O.D. 490/630 at 0.0078125 µg/mL values, listed per item
- TARGET DESC: T1, full-length recombinant human PAD4 (human, UniProt Q9UM07 1-663)
- T1 construct: Full-length recombinant; also called peptidylarginine deiminase 4
- T1 sequence (Q9UM07 whole entry): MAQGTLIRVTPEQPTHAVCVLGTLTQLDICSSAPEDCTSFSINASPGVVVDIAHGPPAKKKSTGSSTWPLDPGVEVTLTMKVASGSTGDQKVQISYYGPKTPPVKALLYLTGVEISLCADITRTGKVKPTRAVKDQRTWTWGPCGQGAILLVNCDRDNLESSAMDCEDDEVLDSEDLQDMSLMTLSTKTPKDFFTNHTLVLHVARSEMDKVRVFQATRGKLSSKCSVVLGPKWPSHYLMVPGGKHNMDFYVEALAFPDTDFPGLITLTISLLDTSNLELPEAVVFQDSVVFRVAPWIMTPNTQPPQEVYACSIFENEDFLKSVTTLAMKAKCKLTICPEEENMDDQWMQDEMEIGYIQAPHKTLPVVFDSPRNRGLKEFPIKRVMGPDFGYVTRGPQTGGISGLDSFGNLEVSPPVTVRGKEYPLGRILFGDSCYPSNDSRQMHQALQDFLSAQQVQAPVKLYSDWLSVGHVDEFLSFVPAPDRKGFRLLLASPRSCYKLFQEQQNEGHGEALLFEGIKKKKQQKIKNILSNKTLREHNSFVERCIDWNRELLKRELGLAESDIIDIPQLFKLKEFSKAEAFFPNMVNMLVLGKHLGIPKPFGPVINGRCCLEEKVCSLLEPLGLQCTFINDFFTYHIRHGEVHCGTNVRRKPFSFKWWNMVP
- TEST METHOD NOTES: ELISA, immobilized human PAD4
I'd appreciate a reply containing only the number, no unit.

Below, 3 binders whose answers are already recorded.
1. humanized anti-PAD4 antibody derived from G8, VH H4.32 / VL L4.00 (antibody, IgG1, V domains shown, IgG1 kappa; also called G8 H4.32/L4.00) VH: EVQLLESGGGLVQPGGSLRLSCAASGFTFSTYAMGWVRQAPGKGLEFVAAIRNDGSWTGYGAAVKGRVTISRDNSKNTVYLQMNSLRAEDTAVYYCAKYTGSSGGSIGAWGQGTLVTVSS VL: SYELTQPPSVSVSPGQTARITCSGGNRNYYYGWYQQKPGQAPVLVIYANDKRPSGIPERFSGSSSGTTVTLTISGVQAEDEADYYCGTADTGKYVFGGGTKLTVLG    0.364
2. humanized anti-PAD4 antibody derived from H7, VH H4.15 / VL L4.00 (antibody, IgG1, V domains shown, IgG1 kappa; also called H7 H4.15/L4.00) VH: EVQLLESGGGLVQPGGSLRLSCAASGFTFSTYAMGWVRQAPGKGLEFVSAIRNDGSWTGYGAAVKGRFTISRDNSKNTVYLQMNSLRAEDTAVYYCAKYTGSSGGSIGAWGQGTLVTVSS VL: SYELTQPPSVSVSPGQTARITCSGGSGRYYYGWYQQKPGQAPVLVIYSSTHRPSGIPERFSGSSSGTTVTLTISGVQAEDEADYYCGTADSSSYVFGGGTKLTVLG    0.429
3. humanized anti-PAD4 antibody derived from G8, VH H4.15 / VL L4.29 (antibody, human IgG1, kappa, V domains shown, IgG1 kappa; also called G8 H4.15/L4.29) VH: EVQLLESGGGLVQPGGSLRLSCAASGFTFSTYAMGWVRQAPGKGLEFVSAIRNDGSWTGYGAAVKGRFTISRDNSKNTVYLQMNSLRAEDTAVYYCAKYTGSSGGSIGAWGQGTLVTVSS VL: SYELTQPPSVSVSPGQTARITCSGGNRNYYYGWYQQKPGQAPVTVIYANDKRPSGIPERFSGSNSGSTTTLTISGVQAEDEADYYCGTADTGKYVFGGGTKLTVLG    1.15

Specify O.D. 490/630 at 0.0078125 µg/mL for humanized anti-PAD4 antibody derived from H7, VH H4.15 / VL L4.06 (antibody, IgG1, V domains shown, IgG1 kappa; also called H7 H4.15/L4.06) VH: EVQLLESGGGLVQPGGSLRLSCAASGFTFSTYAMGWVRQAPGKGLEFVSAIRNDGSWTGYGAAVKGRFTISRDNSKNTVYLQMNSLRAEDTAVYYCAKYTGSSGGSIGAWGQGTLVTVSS VL: SYELTQPPSVSVSPGQTARITCSGGSGRYYYGWYQQKPGQAPVTVIYSSTHRPSGIPERFSGSYSGNTTTLTISGVQAEDEADYYCGTADSSSYVFGGGTKLTVLG and stop.
1.22

Assign O.D. 490/630 at 0.0078125 µg/mL to the following record: humanized anti-PAD4 antibody derived from H7, VH H4.32 / VL L4.00 (antibody, IgG1, V domains shown, IgG1 kappa; also called H7 H4.32/L4.00) VH: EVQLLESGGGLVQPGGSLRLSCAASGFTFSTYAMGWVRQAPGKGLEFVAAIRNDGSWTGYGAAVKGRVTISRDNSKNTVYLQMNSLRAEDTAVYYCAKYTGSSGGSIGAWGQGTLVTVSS VL: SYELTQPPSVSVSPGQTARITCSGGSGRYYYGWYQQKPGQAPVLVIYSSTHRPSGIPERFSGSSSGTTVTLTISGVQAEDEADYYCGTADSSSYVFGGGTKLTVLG
0.389
